Tested on: AGS (Gastric Adenocarcinoma)
MEASUREMENT DESCRIPTION: Cell viability analysis (WST-1), AGS
Format: cell-based
RUN CONDITIONS: 72 h, Table 3, drug 10 μM, WST-1, OD450 nm, read-out: survival rate (viability) of cancer cells, AGS
Counter-ions that a name gives are not always drawn.
viability at 10 µM strictly under 80% means 1 (yes); at 80% or over means 0 (no).

Would you please look over these solved cases?
compound=NCCCCCC(=O)O answer_label="1 (yes)"
compound=Cc1cccc(Nc2ccccc2C(=O)O)c1C answer_label="1 (yes)"
compound="CC(C)OC(=O)C(C)(C)Oc1ccc(C(=O)c2ccc(Cl)cc2)cc1 [Fenofibrate (Tricor, Trilipix), Fenofibrate]" answer_label="0 (no)"

[Q] Determine whether this compound shows viability at 10 µM lower than 80% (ties excluded): Cc1cccc(Cc2c[nH]cn2)c1C [Detomidine HCl]
[A] 1 (yes)

[Q] API: query returns whether the compound falls strictly under 80% in viability at 10 µM. Query: CCCSc1nc(N[C@@H]2C[C@H]2c2ccc(F)c(F)c2)c2nnn([C@@H]3C[C@H](OCCO)[C@@H](O)[C@H]3O)c2n1
[A] 0 (no)

[Q] Does this compound meet the criterion viability at 10 µM < 80%? CCN(CC)CCOC(=O)C(c1ccccc1)c1ccccc1 [Adiphenine HCl]
[A] 0 (no)

[Q] is_below(viability at 10 µM, 80%) for CC1Cc2ccccc2N1NC(=O)c1ccc(Cl)c(S(N)(=O)=O)c1 (stereo not drawn) [Indapamide (Lozol), Indapamide] ?
[A] 0 (no)

[Q] Is the reported viability at 10 µM for CCOC(=O)[C@H](CCc1ccccc1)N[C@H]1CCc2ccccc2N(CC(=O)O)C1=O [Benazepril hydrochloride] strictly below 80%?
[A] 1 (yes)
